# Tested on: Aphis gossypii
# Test protocol: Insecticidal activity against imidacloprid-resistant Aphis gossypii RF45 (cotton aphid) in cotton leaves assessed as mortality measured after 48 hr by dipping method
# Format: functional
Just a reminder that ties go to False: only LC50 strictly below 9 microg/mL2 counts as True.

Examples from the recorded data:
CCN(Cc1ccc(Cl)nc1)/C(=C/[N+](=O)[O-])NC [NITENPYRAM] = False
N#C/N=C1\SCCN1Cc1ccc(Cl)nc1 [THIACLOPRID] = True
CN1COCN(Cc2cnc(Cl)s2)/C1=N\[N+](=O)[O-] [THIAMETHOXAM] = True
C/C(=N\C#N)N(C)Cc1ccc(Cl)nc1 [ACETAMIPRID] = False
CN/C(=N\[N+](=O)[O-])NCc1cnc(Cl)s1 [CLOTHIANIDINE] = True
CN/C(=N/CC1CCOC1)N[N+](=O)[O-] (configuration not stated) [DINOTEFURAN] = True

--- query ---
Task: Find out if reported LC50 for O=[N+]([O-])/N=C1\NCCN1Cc1ccc(Cl)nc1 [IMIDACLOPRID] is less than 9 microg/mL2
Output: False
